Measured shrunken log2 fold change values are reported for all entries that follow.
# Test system: Escherichia coli TOP10
# Experiment notes: shrunken log2 fold change of peptide-encoding DNA abundance (4.5 h post-induction vs induction); higher = less antimicrobial activity (less host growth inhibition)
# Experimental setup: time post-induction: 4.5 h; library: site-saturation at positions 5, 18, 19, 20

Sequence data: RRIRFRPPRLPRPRPRPTVKPRP
shrunken log2 fold change: -0.163
--
Sequence data: RRIRYRPPRLPRPRPRPDSPPRP
shrunken log2 fold change: -0.391
--
Sequence data: RRIRERPPRLPRPRPRPRHIPRP
shrunken log2 fold change: -0.643
--
Sequence data: RRIRYRPPRLPRPRPRPFAVPRP
shrunken log2 fold change: -1.09
--
Sequence data: RRIRARPPRLPRPRPRPRCIPRP
shrunken log2 fold change: 0.459
--
Sequence data: RRIRFRPPRLPRPRPRPITMPRP
shrunken log2 fold change: -0.503
--
Sequence data: RRIRTRPPRLPRPRPRPWWEPRP
shrunken log2 fold change: 0.00671
--
Sequence data: RRIRMRPPRLPRPRPRPLLGPRP
shrunken log2 fold change: 0.495
--
Sequence data: RRIRERPPRLPRPRPRPFKCPRP
shrunken log2 fold change: -0.457
--
Sequence data: RRIRERPPRLPRPRPRPCQAPRP
shrunken log2 fold change: -0.0282
--
Sequence data: RRIRMRPPRLPRPRPRPMTPPRP
shrunken log2 fold change: 0.582
--
Sequence data: RRIRSRPPRLPRPRPRPEDEPRP
shrunken log2 fold change: -0.0488
--
Sequence data: RRIRDRPPRLPRPRPRPFRFPRP
shrunken log2 fold change: -0.0342
--
Sequence data: RRIRIRPPRLPRPRPRPIDHPRP
shrunken log2 fold change: -0.0137
--
Sequence data: RRIRGRPPRLPRPRPRPAEWPRP
shrunken log2 fold change: 0.542
--
Sequence data: RRIRTRPPRLPRPRPRPKTYPRP
shrunken log2 fold change: -0.566
--
Sequence data: RRIRLRPPRLPRPRPRPKRKPRP
shrunken log2 fold change: -0.314
--
Sequence data: RRIRMRPPRLPRPRPRPFTWPRP
shrunken log2 fold change: 0.0653
--
Sequence data: RRIRHRPPRLPRPRPRPRNWPRP
shrunken log2 fold change: 0.0465
--
Sequence data: RRIRTRPPRLPRPRPRPSQCPRP
shrunken log2 fold change: -0.239
--
Sequence data: RRIRYRPPRLPRPRPRPQICPRP
shrunken log2 fold change: -0.00591
--
Sequence data: RRIRTRPPRLPRPRPRPKIKPRP
shrunken log2 fold change: -0.561
--
Sequence data: RRIRPRPPRLPRPRPRPARAPRP
shrunken log2 fold change: 0.438
--
Sequence data: RRIRLRPPRLPRPRPRPYISPRP
shrunken log2 fold change: -0.374
--
Sequence data: RRIRTRPPRLPRPRPRPVGGPRP
shrunken log2 fold change: 0.837
--
Sequence data: RRIRDRPPRLPRPRPRPFRDPRP
shrunken log2 fold change: -0.00232
--
Sequence data: RRIRCRPPRLPRPRPRPRIQPRP
shrunken log2 fold change: -0.196
--
Sequence data: RRIRLRPPRLPRPRPRPYAKPRP
shrunken log2 fold change: 0.0695
--
Sequence data: RRIRYRPPRLPRPRPRPSWNPRP
shrunken log2 fold change: -1.04
--
Sequence data: RRIRDRPPRLPRPRPRPLKMPRP
shrunken log2 fold change: 0.122
--
Sequence data: RRIRPRPPRLPRPRPRPDDPPRP
shrunken log2 fold change: -0.0693
--
Sequence data: RRIRWRPPRLPRPRPRPMTCPRP
shrunken log2 fold change: -0.34
--
Sequence data: RRIRARPPRLPRPRPRPAKPPRP
shrunken log2 fold change: 0.127
--
Sequence data: RRIRHRPPRLPRPRPRPGDFPRP
shrunken log2 fold change: -0.147
--
Sequence data: RRIRLRPPRLPRPRPRPTPVPRP
shrunken log2 fold change: 0.559
--
Sequence data: RRIRTRPPRLPRPRPRPKYKPRP
shrunken log2 fold change: -0.407
--
Sequence data: RRIRLRPPRLPRPRPRPMDSPRP
shrunken log2 fold change: -0.172
--
Sequence data: RRIRVRPPRLPRPRPRPPPLPRP
shrunken log2 fold change: 0.669
--
Sequence data: RRIRCRPPRLPRPRPRPIHTPRP
shrunken log2 fold change: -0.527
--
Sequence data: RRIRNRPPRLPRPRPRPPKQPRP
shrunken log2 fold change: 0.22
--
Sequence data: RRIRLRPPRLPRPRPRPKCNPRP
shrunken log2 fold change: -0.647
--
Sequence data: RRIRMRPPRLPRPRPRPEGFPRP
shrunken log2 fold change: 2.81
--
Sequence data: RRIRMRPPRLPRPRPRPCFPPRP
shrunken log2 fold change: 0.157
--
Sequence data: RRIRDRPPRLPRPRPRPAGKPRP
shrunken log2 fold change: 0.0578
--
Sequence data: RRIRPRPPRLPRPRPRPGAFPRP
shrunken log2 fold change: 0.293
--
Sequence data: RRIRWRPPRLPRPRPRPAMKPRP
shrunken log2 fold change: -0.0119
--
Sequence data: RRIRYRPPRLPRPRPRPKHGPRP
shrunken log2 fold change: -0.413
--
Sequence data: RRIRGRPPRLPRPRPRPQSWPRP
shrunken log2 fold change: 0.445
--
Sequence data: RRIRMRPPRLPRPRPRPMAVPRP
shrunken log2 fold change: -0.00104
--
Sequence data: RRIRPRPPRLPRPRPRPVGCPRP
shrunken log2 fold change: 1.56
--
Sequence data: RRIRGRPPRLPRPRPRPCQSPRP
shrunken log2 fold change: 0.108
--
Sequence data: RRIRARPPRLPRPRPRPRLCPRP
shrunken log2 fold change: 0.574
--
Sequence data: RRIRYRPPRLPRPRPRPTREPRP
shrunken log2 fold change: -0.145
--
Sequence data: RRIRMRPPRLPRPRPRPKEEPRP
shrunken log2 fold change: 0.0115
--
Sequence data: RRIRGRPPRLPRPRPRPIECPRP
shrunken log2 fold change: 0.146
--
Sequence data: RRIRMRPPRLPRPRPRPYNYPRP
shrunken log2 fold change: -0.2
--
Sequence data: RRIRCRPPRLPRPRPRPYWTPRP
shrunken log2 fold change: -0.966
--
Sequence data: RRIRWRPPRLPRPRPRPYMLPRP
shrunken log2 fold change: -0.298
--
Sequence data: RRIRKRPPRLPRPRPRPVTRPRP
shrunken log2 fold change: 0.754
--
Sequence data: RRIRPRPPRLPRPRPRPMCRPRP
shrunken log2 fold change: -0.263
--
Sequence data: RRIRLRPPRLPRPRPRPYCQPRP
shrunken log2 fold change: -0.797
--
Sequence data: RRIRSRPPRLPRPRPRPNEVPRP
shrunken log2 fold change: -0.131
--
Sequence data: RRIRCRPPRLPRPRPRPYIEPRP
shrunken log2 fold change: -1.03

###

# Test system: Escherichia coli TOP10
# Experiment notes: shrunken log2 fold change of peptide-encoding DNA abundance (4.5 h post-induction vs induction); higher = less antimicrobial activity (less host growth inhibition)
# Experimental setup: time post-induction: 4.5 h; library: site-saturation at positions 5, 18, 19, 20

Sequence data: RRIRRRPPRLPRPRPRPGMKPRP
shrunken log2 fold change: -0.133

Sequence data: RRIRFRPPRLPRPRPRPTINPRP
shrunken log2 fold change: -0.508

Sequence data: RRIRDRPPRLPRPRPRPWKDPRP
shrunken log2 fold change: -0.0129

Sequence data: RRIRKRPPRLPRPRPRPSKHPRP
shrunken log2 fold change: 0.0908

Sequence data: RRIRKRPPRLPRPRPRPEERPRP
shrunken log2 fold change: 1.23

Sequence data: RRIRVRPPRLPRPRPRPIDIPRP
shrunken log2 fold change: -0.11

Sequence data: RRIRARPPRLPRPRPRPGNHPRP
shrunken log2 fold change: -0.0331

Sequence data: RRIRARPPRLPRPRPRPMYCPRP
shrunken log2 fold change: 0.0455

Sequence data: RRIRCRPPRLPRPRPRPNAAPRP
shrunken log2 fold change: 0.975

Sequence data: RRIRKRPPRLPRPRPRPPHMPRP
shrunken log2 fold change: 0.208

Sequence data: RRIRGRPPRLPRPRPRPTGRPRP
shrunken log2 fold change: 0.907

Sequence data: RRIRFRPPRLPRPRPRPLDIPRP
shrunken log2 fold change: -0.267

Sequence data: RRIRARPPRLPRPRPRPNKEPRP
shrunken log2 fold change: -0.211

Sequence data: RRIRNRPPRLPRPRPRPELVPRP
shrunken log2 fold change: 0.391

Sequence data: RRIRHRPPRLPRPRPRPVFCPRP
shrunken log2 fold change: -0.138

###

# Tested on: Escherichia coli TOP10;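 note: peptides expressed intracellularly from a pBAD plasmid library in pooled LB shake-flask culture, induced with 0.3% L-arabinose, DNA abundance read by NGS, three biological replicates, DESeq2 with apeglm shrinkage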
# Experiment notes: shrunken log2 fold change of peptide-encoding DNA abundance (4.5 h post-induction vs induction); higher = less antimicrobial activity (less host growth inhibition)
# Experimental setup: time post-induction: 4.5 h; library: site-saturation at positions 5, 18, 19, 20
Record Satisfied whenever shrunken log2 fold change is at 0.01 or higher; record Not satisfied when lower.

Sequence data: RRIRGRPPRLPRPRPRPVWKPRP
Label value: Satisfied
--
Sequence data: RRIRGRPPRLPRPRPRPFLNPRP
Label value: Satisfied
--
Sequence data: RRIRPRPPRLPRPRPRPPMIPRP
Label value: Not satisfied
--
Sequence data: RRIRRRPPRLPRPRPRPGVDPRP
Label value: Satisfied
--
Sequence data: RRIRRRPPRLPRPRPRPRLGPRP
Label value: Satisfied
--
Sequence data: RRIRDRPPRLPRPRPRPCDLPRP
Label value: Not satisfied
--
Sequence data: RRIRHRPPRLPRPRPRPEMFPRP
Label value: Satisfied
--
Sequence data: RRIRRRPPRLPRPRPRPEQPPRP
Label value: Satisfied
--
Sequence data: RRIRFRPPRLPRPRPRPDIRPRP
Label value: Satisfied
--
Sequence data: RRIRVRPPRLPRPRPRPWPIPRP
Label value: Not satisfied
--
Sequence data: RRIRSRPPRLPRPRPRPPFEPRP
Label value: Satisfied
--
Sequence data: RRIRIRPPRLPRPRPRPKVEPRP
Label value: Satisfied
--
Sequence data: RRIRRRPPRLPRPRPRPMSWPRP
Label value: Satisfied
--
Sequence data: RRIRRRPPRLPRPRPRPHTEPRP
Label value: Not satisfied
--
Sequence data: RRIRQRPPRLPRPRPRPKKEPRP
Label value: Not satisfied
